- System: Staphylococcus aureus
- MEASUREMENT_PROTOCOL: Minimum inhibitory concentration in vitro against Staphylococcus aureus FDA 209P
- Assay type: functional
MEASUREMENT_TYPE: MIC (µg/mL)
Numeric only. Scale: µg/mL

Q: State the recorded MIC for this entry: COc1c(N2CCC(CN)(CF)C2)c(F)cc2c(=O)c(C(=O)O)cn(C3CC3)c12 (centres undefined)
Ans: 0.012

Q: Please do the same for CNCC1(CF)CCN(c2c(F)cc3c(=O)c(C(=O)O)cn(C4CC4)c3c2OC)C1 (centres undefined) as well.
Ans: 0.025

Q: One more molecule: COc1c(N2CC[C@](CN)(CF)C2)c(F)cc2c(=O)c(C(=O)O)cn(C3CC3)c12
Ans: 0.012

Q: Consider next the molecule COc1c(N2CCC(C)(CN)C2)c(F)cc2c(=O)c(C(=O)O)cn(C3CC3)c12 (centres undefined) in the same way.
Ans: 0.012

Q: Input NCC1CN(c2c(F)cc3c(=O)c(C(=O)O)cn(C4CC4)c3c2F)CCO1 (centres undefined)
Ans: 0.025

Q: Now give it for NCC1CN(c2cc3c(cc2F)c(=O)c(C(=O)O)cn3C2CC2)CCO1 (centres undefined) too.
Ans: 0.2

Q: Now the same for COc1c(N2CCC(CN)(CO)C2)c(F)cc2c(=O)c(C(=O)O)cn(C3CC3)c12 (centres undefined)
Ans: 0.1

Q: Also check NC1CCN(c2nc3c(cc2F)c(=O)c(C(=O)O)cn3-c2ccc(F)cc2F)C1 (centres undefined) [TOSUFLOXACIN]
Ans: 0.025

Q: Try COc1c(N2CCC(CF)(CN(C)C)C2)c(F)cc2c(=O)c(C(=O)O)cn(C3CC3)c12 (centres undefined) next.
Ans: 0.1
